- tested_on: L-lactate dehydrogenase (Plasmodium falciparum (isolate CDC / Honduras)) (UniProt Q27743)
- Sequence (Q27743 whole entry, looked up): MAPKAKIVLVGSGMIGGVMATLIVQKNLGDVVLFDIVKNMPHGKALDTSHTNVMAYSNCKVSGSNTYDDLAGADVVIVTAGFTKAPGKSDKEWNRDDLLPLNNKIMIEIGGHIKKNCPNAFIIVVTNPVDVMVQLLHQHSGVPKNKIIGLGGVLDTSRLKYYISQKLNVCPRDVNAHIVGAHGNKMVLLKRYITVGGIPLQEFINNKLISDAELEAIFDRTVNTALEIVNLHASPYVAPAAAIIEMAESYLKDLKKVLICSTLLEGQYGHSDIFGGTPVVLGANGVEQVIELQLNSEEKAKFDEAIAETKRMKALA
- test_method_notes: PfLDH activity inhibition – cell lysate, 3D7 strain, counter-screen for P. falciparum growth inhibition project (AID 2304);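 note: 0% = vehicle and 100% = reference inhibitor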
- test_parameters: P. falciparum 3D7 crude extract, LDH APAD/NBT absorbance; at 2 µM; hits give high values
observation_type: inhibition (%)
// return numeric value only (unit: %, not printed)

Record excerpt, results attached:
* CN(C)c1ccc(-c2csc(C(=O)NCC3CCN(Cc4cccc(C(F)(F)F)c4)C3)c2)cc1 (stereo not given) | -2
* Cc1cc(=O)c(-c2ccc(Oc3ccc(Cl)cc3Cl)cc2)c(C)[nH]1 | -2
* CN(C)c1ccc(-c2nnc(Sc3ccc(C#N)c([N+](=O)[O-])c3)n2Cc2ccco2)cc1 | 3
* NC(=O)c1cccc(Nc2nccc(Nc3ccc(Oc4c(Cl)cccc4Cl)c(Cl)c3)n2)c1 | 5
* N[C@@H](CCNC1CCN(c2cccc(C(F)(F)F)c2)CC1)Cc1ccc(F)c(F)c1 | -1
* CN1CCC(NC(=O)c2cc(Oc3ccc4c(c3)CCN4C(=O)Nc3cccc(C(F)(F)F)c3)ccn2)CC1 | -3
* COc1ccc(CCNc2nc(N)c3cc(OC)c(OC)cc3n2)cc1 | -1
* O=C(c1cc2c(s1)-c1cccc(Cl)c1SC2)N1CCN(c2ccncc2)CC1 | 1

Entry `CCOc1cc(CNCCCCCCNCc2cc(OCC)c(OCC)c3ccccc23)c2ccccc2c1OCC` : inhibition on L-lactate dehydrogenase (Plasmodium falciparum (isolate CDC / Honduras)) (UniProt Q27743) = 2

Entry `CCc1cc(NCc2ccncc2)nc(Nc2ccc(F)cc2)n1` : inhibition on L-lactate dehydrogenase (Plasmodium falciparum (isolate CDC / Honduras)) (UniProt Q27743) = 0

Entry CC(Cc1ccc(NC(=O)c2ccc(CC(C)NCc3ccc(Cl)c(Cl)c3)cc2)cc1)NCCc1cccc(Cl)c1 (stereo not given) : inhibition on L-lactate dehydrogenase (Plasmodium falciparum (isolate CDC / Honduras)) (UniProt Q27743) = 4

Entry CC(Sc1nc2sccc2c(=O)n1C)C(=O)Nc1ccc2c(c1)OCO2 (stereo not given) : inhibition on L-lactate dehydrogenase (Plasmodium falciparum (isolate CDC / Honduras)) (UniProt Q27743) = 4

Entry `COc1cccc(CC(=O)N2CCC(n3c(C)nc4ccc(C)cc43)CC2)c1` : inhibition on L-lactate dehydrogenase (Plasmodium falciparum (isolate CDC / Honduras)) (UniProt Q27743) = -2

Entry `O=S(=O)(Nc1ccc2nccc(N3CCNCC3)c2c1)c1ccc2oc3ccccc3c2c1` : inhibition on L-lactate dehydrogenase (Plasmodium falciparum (isolate CDC / Honduras)) (UniProt Q27743) = -5

Entry `COc1ccc(-c2ccc(NC(=O)c3cccc(C#N)c3)cc2)cc1CN1CCCN(C)CC1` : inhibition on L-lactate dehydrogenase (Plasmodium falciparum (isolate CDC / Honduras)) (UniProt Q27743) = 6

Entry Cc1cccc(C)c1N1CCN(C2CCC(NC(=O)/C=C/c3ccccc3)CC2)CC1 (stereo not given) : inhibition on L-lactate dehydrogenase (Plasmodium falciparum (isolate CDC / Honduras)) (UniProt Q27743) = -2

Entry FC(F)(F)c1cccc(Nc2nc3nonc3nc2NC2C3CC4CC(C3)CC2C4)c1 (stereo not given) : inhibition on L-lactate dehydrogenase (Plasmodium falciparum (isolate CDC / Honduras)) (UniProt Q27743) = -2

Entry `COC(=O)c1cc(OC)c(OC)cc1NC(=O)NC12CC3CC(CC(C3)C1)C2` : inhibition on L-lactate dehydrogenase (Plasmodium falciparum (isolate CDC / Honduras)) (UniProt Q27743) = 6

Entry `S=c1nc(-c2ccccc2)n2ccsc2n1` : inhibition on L-lactate dehydrogenase (Plasmodium falciparum (isolate CDC / Honduras)) (UniProt Q27743) = -6

Entry `O=C(/C=C/c1ccc(Cl)c(Cl)c1)NCCCCCN1CCC(c2c[nH]c3ccc(O)cc23)CC1` : inhibition on L-lactate dehydrogenase (Plasmodium falciparum (isolate CDC / Honduras)) (UniProt Q27743) = 3

Entry `CCC(CC)N1CCN(CC(=O)Nc2ccc([N+](=O)[O-])cc2C(=O)Nc2cccc(OC)c2)CC1` : inhibition on L-lactate dehydrogenase (Plasmodium falciparum (isolate CDC / Honduras)) (UniProt Q27743) = 0
